Where do the numbers come from? From PubChem BioAssay (NCI).

test system: OVCAR-3 ovarian; test: NCI tumour cell line growth inhibition, 48 h
Parameter: GI50

Respond only with GI50 recorded for CC(C)(C)CC(C)(C)c1ccc(OCCO)cc1 2.63 µg/mL

Respond only with GI50 recorded for CN1C(=O)C(c2c[nH]c3ccccc23)=C(c2c[nH]c3ccccc23)C1=O 7030 nM

Respond only with GI50 recorded for O=c1nc2n(-c3cccc(Cl)c3)c3ccc([N+](=O)[O-])cc3cc-2c(=O)[nH]1 1080 nM

Respond only with GI50 recorded for O=C(N/N=C/c1ccc(Cl)cc1)c1ccc(NC(=O)c2ccccn2)cc1 14000 nM

Respond only with GI50 recorded for Cn1ncnc1[C@@H]1c2n[nH]c(=O)c3cc(F)cc(c23)N[C@H]1c1ccc(F)cc1 > 100000 nM

Respond only with GI50 recorded for CCN(Cc1ccc(OC)cc1)c1ccc(CO)c(Cl)c1 636 nM

Respond only with GI50 recorded for COC(=O)[C@@H](C)C[C@H](Cc1ccccc1)NC(=O)c1nc([C@@H](C[C@H](C(C)C)N(C)C(=O)[C@@H](NC(=O)[C@H]2C[C@H](O)CCN2C)C(C)C)OC(C)=O)sc1C(C)C 1.48 nM

Respond only with GI50 recorded for O=C([CH-]C(=O)c1ccccc1)c1ccccc1.O=C([CH-]C(=O)c1ccccc1)c1ccccc1.O=C([CH-]C(=O)c1ccccc1)c1ccccc1.[Ga+3] > 100000 nM

Respond only with GI50 recorded for N#CC1=C(N)Oc2c(sc3c(Br)cccc23)C1c1ccc([N+](=O)[O-])cc1 (stereo unspecified) 40.3 nM

Respond only with GI50 recorded for CC(C)=CCC/C(C)=C/CC/C(C)=C/CSC[C@H](NC(=O)CCCCCN1CCN(C)CC1)C(=O)NC1CCCCCC1 2060 nM

Respond only with GI50 recorded for COc1cc2c(c3oc(-c4ccc(O)cc4)c(O)c(=O)c13)CCC(C)(C)O2 431 nM

Respond only with GI50 recorded for Cc1cc(I)cc(CNCCN(C)C)c1O > 86000 nM

Respond only with GI50 recorded for Nc1c(C(=O)Nc2cccc(Cl)c2)sc2nc3c(cc12)C(=O)CCC3 305 nM

Respond only with GI50 recorded for CC(C)=CCc1cc2c(cc1O)C1=C(C(=O)C3=C(NCCS3(=O)=O)C1=O)C(C=C(C)C)O2 (stereo unspecified) 2130 nM

Respond only with GI50 recorded for COC(=O)N[C@H]1CCc2cc(OC)c(OC)c(OC)c2-c2ccc(SC)c(=O)cc21 < 10 nM

Respond only with GI50 recorded for C[C@@H]1CN2[C@H]3[C@@H]1CC[C@]31CCC(=O)O[C@]1(C)[C@H]1CC[C@H]3CCC=C3[C@@H]12 > 30000 nM

---

test system: OVCAR-8 ovarian; experiment: NCI tumour cell line growth inhibition, 48 h
Parameter: TGI

Respond only with TGI recorded for COC(=O)C(=O)C(C(=O)C(=O)Nc1ccc(Cl)c(Cl)c1)c1nc2ccc(C(=O)c3ccccc3)cc2[nH]c1=O (stereo unspecified) > 100 µM

Respond only with TGI recorded for CSC(=S)CC(O)[C@@H]1CC2c3ccccc3C1c1ccccc12 (stereo partly specified) 39.2 µM

Respond only with TGI recorded for CC(C)OC(=O)NCCn1cc(-c2ccccc2)nn1 > 100 µM

Respond only with TGI recorded for CN(C)CCNC(=O)c1cc2c3cc(Cl)ccc3[nH]c2c2ncccc12 12.7 µM

Respond only with TGI recorded for CC1(C)N=C(N)N=C(N)N1c1ccc(OCCCNC(=O)Nc2ccc(S(=O)(=O)F)cc2)c(Cl)c1 > 100 µM

Respond only with TGI recorded for NC(N)NCCCc1cn2c(n1)C1CCCN1C(=O)C2Cc1ccccc1 (stereo unspecified) > 100 µM

Respond only with TGI recorded for COC(=O)c1c(O)c(C#N)c2[nH]c3ccccc3n2c1=O > 100 µM

Respond only with TGI recorded for O=C([CH-]C(=O)c1ccccc1)c1ccccc1.O=C([CH-]C(=O)c1ccccc1)c1ccccc1.O=C([CH-]C(=O)c1ccccc1)c1ccccc1.[Ga+3] > 100 µM

Respond only with TGI recorded for CCCCNC(=O)OCCN=c1c2ccccc2ccc2ccccc12 > 100 µM

Respond only with TGI recorded for Cc1c(C(Cc2ccccc2N(C)C(=O)/C=C\C(=O)O)c2c[nH]c3ccccc23)c2ccccc2n1C (stereo unspecified) 29.4 µM

Respond only with TGI recorded for O=c1[nH]c(=S)[nH]cc1CN1CCOCC1 > 100 µM

Respond only with TGI recorded for O=C1CSC(c2c[nH]c3ccccc23)N1c1cccc(Cl)c1 (stereo unspecified) > 100 µM

Respond only with TGI recorded for O=C(NCc1cn(Cc2cccc(Oc3ccccc3)c2)nn1)c1cccnc1Nc1ccc(F)cc1 > 100 µM

Respond only with TGI recorded for O=C1Cc2c(-c3cccs3)cc(-c3ccccc3)nc2-c2ccccc2N1 17.1 µM

Respond only with TGI recorded for COc1ccc(-c2cc(N3CCN(c4ccc(Cl)cc4)CC3)c(C#N)c(=O)o2)cc1 19.1 µM

Respond only with TGI recorded for COc1cc(CN=c2nc(N(C)C)ss2)cc(OC)c1OC > 8.92 µM

Respond only with TGI recorded for O=C1c2cc(Br)ccc2-c2ccc3c4ccc5c6c(ccc(c7ccc1c2c73)c64)C(=O)c1cc(Br)ccc1-5 > 100 µM

Respond only with TGI recorded for O=c1[nH]c2ccccc2n1C1CCNCC1 > 100 µM

Respond only with TGI recorded for COc1ccc2c(O)c(Oc3ccc(Cl)cc3)c(=O)oc2c1 > 100 µM

Respond only with TGI recorded for CC(C)=CCc1cc2c(cc1O)C1=C(C(=O)C3=C(NCCS3(=O)=O)C1=O)C(C=C(C)C)O2 (stereo unspecified) > 16.7 µM

Respond only with TGI recorded for COC(=O)c1cc2ccc(O)c(O)c2cn1 28.6 µM

---

What TGI was measured for each of the following?
test system: NCI-H226 lung; assay: NCI tumour cell line growth inhibition, 48 h
Please state the figure in µM; there is no need to write the unit.

Provide the reported TGI (system: NCI-H226 lung) for CC(=O)OCC1OC(n2c3c(c(-c4ccc(C)cc4)c(C#N)c2=S)C(=O)CC(C)(C)C3)C(OC(C)=O)C(OC(C)=O)C1OC(C)=O (stereo not given) 61.8

Provide the reported TGI (system: NCI-H226 lung) for CC(=O)N1C=Cc2c(c(C)c3c([nH]c4ccccc43)c2C)C1 31.9

Provide the reported TGI (system: NCI-H226 lung) for COc1cccc2c1nc(C(F)F)n2-c1nc(-c2ccc(NS(=O)(=O)CCN(C)C)cc2)nc(N2CCOCC2)n1 6.43

Provide the reported TGI (system: NCI-H226 lung) for COc1cc2c(c3oc(-c4ccc(O)cc4)c(O)c(=O)c13)CCC(C)(C)O2 2.55

Provide the reported TGI (system: NCI-H226 lung) for NC(N)=N/N=C/c1c(-c2ccccc2[N+](=O)[O-])nc2sccn12 39.1

Provide the reported TGI (system: NCI-H226 lung) for CN(C)CCNC(=O)c1cc2c3cc(Cl)ccc3[nH]c2c2ncccc12 16.7

---

test system: HT29 colon; assay: NCI tumour cell line growth inhibition, 48 h
Parameter: TGI

Provide the reported TGI (system: HT29 colon) for Cn1cc(-c2ccc3nc(-c4ccc(CC(=O)Nc5cc(C(C)(C)C)no5)cc4)cnc3c2)cn1 > 3 µM

Provide the reported TGI (system: HT29 colon) for CC(C)[Si](OC12CCC(CC1O)CC2CO)(C(C)C)C(C)C (stereo unspecified) 28.9 µM

Provide the reported TGI (system: HT29 colon) for COc1ccc(/C=C/C(=O)c2cc(OC)cc(OC)c2)cc1 4.96 µM

Provide the reported TGI (system: HT29 colon) for CCC(C)N1CN(c2ccccc2)C2(CCN(CC3COc4ccccc4O3)CC2)C1=O (stereo unspecified) 40.3 µM

Provide the reported TGI (system: HT29 colon) for CC1CCCCCC(=O)c2c(O)cc(O)cc2CC(=O)O1 (stereo unspecified) > 100 µM

Provide the reported TGI (system: HT29 colon) for Cc1cccc(Nc2nc3ccccc3nc2NS(=O)(=O)c2ccc(N)cc2)c1 > 100 µM

Provide the reported TGI (system: HT29 colon) for O=C(O)CN1CCSc2ccccc2CN(CC(=O)O)CCSc2ccccc2C1 > 100 µM

Provide the reported TGI (system: HT29 colon) for Cc1ccc2c(c1C)C(=O)C1(C2)Cc2ccc3c(c2C1=O)CCC3 (stereo unspecified) > 100 µM

Provide the reported TGI (system: HT29 colon) for COc1ccc2c(c1)/C(=C/c1c(O)[nH]c(=S)[nH]c1=O)C=N2 > 100 µM

Provide the reported TGI (system: HT29 colon) for O=C1C=C(Nc2ccccc2)c2ccccc2C1=O 5.17 µM

Provide the reported TGI (system: HT29 colon) for C=CCOC(=O)Cn1cnc2c(N)ncnc21 > 100 µM

---

test system: COLO 205 colon; experiment: NCI tumour cell line growth inhibition, 48 h; in the data active means GI50 below about 0.43 µM; inactive means the rest
// one of true (active), false (inactive), no free text

Recorded call for CCC(=C(c1ccc(OCCN2CCCCC2)cc1)c1ccc(OCCN2CCCCC2)cc1)c1ccc(Cl)cc1 ? false

Recorded call for CN(C)CCNC(=O)c1cc2c3cc(Cl)ccc3[nH]c2c2ncccc12 ? false

Recorded call for CN1CCN(Cc2ccc(NC(=O)c3cncc(C#Cc4cnc(N)c5ncccc45)c3)cc2C(F)(F)F)CC1 ? true

Recorded call for C/C(=C\C(=O)O[C@H]1[C@@H]2[C@H](C)CC[C@H]2[C@]2(C)O[C@@]1(C1CCCCC1)C[C@H]2OC(=O)CO)c1ccccc1 ? false

Recorded call for CCOc1ccc(N(C)c2ccc(/C=C/C3=[N+](C)c4ccccc4C3(C)C)cc2)cc1 ? true

Recorded call for COc1ccc(-c2nc3sc(-c4cc(OC)c(OC)c(OC)c4)nn3c2/C=C2/C(=O)Nc3ccc(F)cc32)cc1 ? false

Recorded call for Cc1cc(I)cc(CNCCN(C)C)c1O ? false

Recorded call for COc1cc2cc(NCc3cccc(Cl)c3)nc(C)c2cc1OC ? false

Recorded call for Nc1ccc(/C=C/c2ccc3ncccc3c2)cc1 ? false
